Target: Nav1.7 (or SCN9A) channel; HEK cells stably transfected with hSCN9A (Homo sapiens, UniProt Q15858)
Construct: expressed in transfected cells
Sequence (Q15858 whole entry): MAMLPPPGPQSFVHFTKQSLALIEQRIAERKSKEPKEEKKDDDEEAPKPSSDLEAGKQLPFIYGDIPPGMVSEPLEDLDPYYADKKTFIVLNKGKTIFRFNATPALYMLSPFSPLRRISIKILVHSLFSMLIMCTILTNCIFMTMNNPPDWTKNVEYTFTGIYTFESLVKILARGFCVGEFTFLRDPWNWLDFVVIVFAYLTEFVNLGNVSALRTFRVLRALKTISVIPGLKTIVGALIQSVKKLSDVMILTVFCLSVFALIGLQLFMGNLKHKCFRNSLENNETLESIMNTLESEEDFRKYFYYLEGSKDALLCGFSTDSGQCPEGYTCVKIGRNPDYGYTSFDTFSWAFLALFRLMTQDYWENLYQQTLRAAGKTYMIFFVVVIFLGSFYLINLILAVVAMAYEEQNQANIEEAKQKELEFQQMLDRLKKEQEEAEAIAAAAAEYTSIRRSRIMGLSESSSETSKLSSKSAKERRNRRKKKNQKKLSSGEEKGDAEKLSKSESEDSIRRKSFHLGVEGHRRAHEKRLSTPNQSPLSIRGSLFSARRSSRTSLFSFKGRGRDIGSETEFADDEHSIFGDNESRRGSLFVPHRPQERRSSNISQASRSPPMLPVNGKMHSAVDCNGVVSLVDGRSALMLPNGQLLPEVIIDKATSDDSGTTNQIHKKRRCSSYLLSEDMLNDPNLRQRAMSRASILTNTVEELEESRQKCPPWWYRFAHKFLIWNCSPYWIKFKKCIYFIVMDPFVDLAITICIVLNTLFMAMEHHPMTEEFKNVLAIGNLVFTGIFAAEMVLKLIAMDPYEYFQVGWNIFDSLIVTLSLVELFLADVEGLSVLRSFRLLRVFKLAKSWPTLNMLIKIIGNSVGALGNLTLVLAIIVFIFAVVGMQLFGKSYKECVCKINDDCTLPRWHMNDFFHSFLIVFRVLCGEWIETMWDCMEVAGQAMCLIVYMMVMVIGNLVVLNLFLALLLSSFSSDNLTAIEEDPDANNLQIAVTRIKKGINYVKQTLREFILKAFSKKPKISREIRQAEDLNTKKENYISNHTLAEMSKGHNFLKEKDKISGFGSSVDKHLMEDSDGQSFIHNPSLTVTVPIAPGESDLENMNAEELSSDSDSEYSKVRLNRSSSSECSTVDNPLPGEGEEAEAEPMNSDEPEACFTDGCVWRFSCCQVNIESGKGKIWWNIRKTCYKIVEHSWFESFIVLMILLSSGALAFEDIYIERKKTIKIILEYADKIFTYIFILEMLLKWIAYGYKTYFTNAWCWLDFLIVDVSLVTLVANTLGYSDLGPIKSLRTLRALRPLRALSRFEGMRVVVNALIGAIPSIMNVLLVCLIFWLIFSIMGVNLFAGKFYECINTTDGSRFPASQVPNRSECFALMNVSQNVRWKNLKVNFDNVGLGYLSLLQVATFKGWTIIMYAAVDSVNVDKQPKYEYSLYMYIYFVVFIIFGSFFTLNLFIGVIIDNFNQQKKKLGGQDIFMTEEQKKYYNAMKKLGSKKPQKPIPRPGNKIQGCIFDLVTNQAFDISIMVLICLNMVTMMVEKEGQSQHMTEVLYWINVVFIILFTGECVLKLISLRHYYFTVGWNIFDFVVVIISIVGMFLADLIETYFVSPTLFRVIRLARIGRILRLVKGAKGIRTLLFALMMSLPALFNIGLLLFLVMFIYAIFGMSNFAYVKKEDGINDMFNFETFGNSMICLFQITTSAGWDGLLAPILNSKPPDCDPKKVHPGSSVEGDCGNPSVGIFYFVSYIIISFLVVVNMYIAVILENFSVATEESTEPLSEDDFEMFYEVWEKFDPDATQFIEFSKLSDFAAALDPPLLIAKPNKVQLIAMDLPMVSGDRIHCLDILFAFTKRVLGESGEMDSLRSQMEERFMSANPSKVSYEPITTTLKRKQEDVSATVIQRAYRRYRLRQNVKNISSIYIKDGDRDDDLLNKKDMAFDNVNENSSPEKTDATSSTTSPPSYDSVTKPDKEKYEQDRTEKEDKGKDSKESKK
Assay: Nav1.7 block, PatchXpress 7000 automated whole-cell voltage clamp, estimated IC50 (EIC50)
Format: cell-based
Details: estimated IC50; hSCN9A HEK cells, PatchXpress platform; Examples 283-814
Output: class label from IC50. Mapping: LOW: < 100 nM; MEDIUM: ≥ 100 nM and < 2000 nM; HIGH: ≥ 2000 nM

Example cases with answers are listed next.
CCn1nc(C(F)(F)F)cc1-c1ccc(Oc2ccc(S(=O)(=O)Nc3nc(C)ns3)cc2C#N)cc1 : HIGH
CCc1ccc(Oc2ccc(S(=O)(=O)Nc3nccs3)cc2C#N)c(-c2ccnn2C)c1 : LOW
N#Cc1cc(S(=O)(=O)Nc2nccs2)ccc1Oc1ccc(-n2cc(Cl)cn2)c(Cl)c1 : MEDIUM

Query: Form field 'band' for Cn1nccc1-c1cc(F)ccc1Oc1ccc(S(=O)(=O)Nc2ncc(F)s2)cc1F
Reply: MEDIUM

Query: Form field 'band' for Cn1nccc1-c1cc(Cl)ccc1Oc1ccc(S(=O)(=O)Nc2ncc(Cl)cn2)cc1C#N
Reply: HIGH

Query: Form field 'band' for N#Cc1cc(S(=O)(=O)Nc2nccs2)ccc1Oc1ccc(Cl)cc1-c1cnn[nH]1
Reply: MEDIUM

Query: Form field 'band' for Cn1nc(C(F)(F)F)cc1-c1cccc(Oc2ccc(S(=O)(=O)Nc3nccs3)cc2C#N)c1F
Reply: MEDIUM

Query: Form field 'band' for Cc1cc(-c2cc(C(F)(F)F)ccc2Oc2ccc(S(=O)(=O)Nc3ncns3)cc2C#N)ccn1
Reply: LOW

Query: Form field 'band' for N#Cc1cc(S(=O)(=O)Nc2nccs2)ccc1Oc1ccc(-n2cccn2)cc1
Reply: HIGH

Query: Form field 'band' for O=S(=O)(Nc1cscn1)c1cc(Cl)c(Oc2ccc(F)cc2-c2ccnn2C2CNC2)cc1F
Reply: LOW

Query: Form field 'band' for Cn1nc(C(F)(F)F)cc1-c1ccc(Oc2cc(F)c(S(=O)(=O)Nc3nccs3)cc2F)cc1
Reply: MEDIUM

Query: Form field 'band' for N#Cc1cc(S(=O)(=O)Nc2nccs2)ccc1Oc1ccc(Cl)cc1-c1[nH]ncc1F
Reply: LOW

Query: Form field 'band' for CCn1nc(C(F)(F)F)cc1-c1ccc(Oc2ccc(S(=O)(=O)Nc3ccc(C#N)cn3)cc2C#N)cc1
Reply: HIGH

Query: Form field 'band' for N#Cc1cc(S(=O)(=O)Nc2nccs2)ccc1Oc1ccc(Cl)c(-c2ccn[nH]2)c1
Reply: HIGH

Query: Form field 'band' for CC(C)(C)n1nccc1-c1cc(F)ccc1Oc1ccc(S(=O)(=O)Nc2ncns2)cc1C#N
Reply: MEDIUM

Query: Form field 'band' for N#Cc1cc(S(=O)(=O)Nc2cscn2)ccc1Oc1ccc(Cl)cc1-c1cn[nH]c1N
Reply: MEDIUM

Query: Form field 'band' for Cc1n[nH]cc1-c1cc(Cl)ccc1Oc1ccc(S(=O)(=O)Nc2nccs2)cc1F
Reply: LOW

Query: Form field 'band' for O=S(=O)(Nc1ncns1)c1ccc(Oc2ccc(Cl)cc2-c2cn[nH]c2)c(Cl)c1
Reply: LOW

Query: Form field 'band' for COCc1cc(C(F)F)nn1-c1cccc(Oc2ccc(S(=O)(=O)Nc3nccs3)cc2C#N)c1
Reply: MEDIUM

Query: Form field 'band' for Cc1ccc(NS(=O)(=O)c2ccc(Oc3ccccc3-c3ccccc3)c(C#N)c2)nc1
Reply: HIGH

Query: Form field 'band' for CCn1nc(C(F)(F)F)cc1-c1ccc(Oc2ccc(S(=O)(=O)Nc3ccc(C(F)(F)F)cn3)cc2C#N)cc1
Reply: HIGH

Query: Form field 'band' for Cn1nccc1-c1ccc(I)cc1Oc1ccc(S(=O)(=O)Nc2ncc(F)s2)cc1C#N
Reply: LOW
